target.of.assay: Glutamate NMDA receptor; GRIN1/GRIN2B (Homo sapiens, UniProt Q05586+Q13224)
Sequence (Q13224 whole entry, other chains not shown): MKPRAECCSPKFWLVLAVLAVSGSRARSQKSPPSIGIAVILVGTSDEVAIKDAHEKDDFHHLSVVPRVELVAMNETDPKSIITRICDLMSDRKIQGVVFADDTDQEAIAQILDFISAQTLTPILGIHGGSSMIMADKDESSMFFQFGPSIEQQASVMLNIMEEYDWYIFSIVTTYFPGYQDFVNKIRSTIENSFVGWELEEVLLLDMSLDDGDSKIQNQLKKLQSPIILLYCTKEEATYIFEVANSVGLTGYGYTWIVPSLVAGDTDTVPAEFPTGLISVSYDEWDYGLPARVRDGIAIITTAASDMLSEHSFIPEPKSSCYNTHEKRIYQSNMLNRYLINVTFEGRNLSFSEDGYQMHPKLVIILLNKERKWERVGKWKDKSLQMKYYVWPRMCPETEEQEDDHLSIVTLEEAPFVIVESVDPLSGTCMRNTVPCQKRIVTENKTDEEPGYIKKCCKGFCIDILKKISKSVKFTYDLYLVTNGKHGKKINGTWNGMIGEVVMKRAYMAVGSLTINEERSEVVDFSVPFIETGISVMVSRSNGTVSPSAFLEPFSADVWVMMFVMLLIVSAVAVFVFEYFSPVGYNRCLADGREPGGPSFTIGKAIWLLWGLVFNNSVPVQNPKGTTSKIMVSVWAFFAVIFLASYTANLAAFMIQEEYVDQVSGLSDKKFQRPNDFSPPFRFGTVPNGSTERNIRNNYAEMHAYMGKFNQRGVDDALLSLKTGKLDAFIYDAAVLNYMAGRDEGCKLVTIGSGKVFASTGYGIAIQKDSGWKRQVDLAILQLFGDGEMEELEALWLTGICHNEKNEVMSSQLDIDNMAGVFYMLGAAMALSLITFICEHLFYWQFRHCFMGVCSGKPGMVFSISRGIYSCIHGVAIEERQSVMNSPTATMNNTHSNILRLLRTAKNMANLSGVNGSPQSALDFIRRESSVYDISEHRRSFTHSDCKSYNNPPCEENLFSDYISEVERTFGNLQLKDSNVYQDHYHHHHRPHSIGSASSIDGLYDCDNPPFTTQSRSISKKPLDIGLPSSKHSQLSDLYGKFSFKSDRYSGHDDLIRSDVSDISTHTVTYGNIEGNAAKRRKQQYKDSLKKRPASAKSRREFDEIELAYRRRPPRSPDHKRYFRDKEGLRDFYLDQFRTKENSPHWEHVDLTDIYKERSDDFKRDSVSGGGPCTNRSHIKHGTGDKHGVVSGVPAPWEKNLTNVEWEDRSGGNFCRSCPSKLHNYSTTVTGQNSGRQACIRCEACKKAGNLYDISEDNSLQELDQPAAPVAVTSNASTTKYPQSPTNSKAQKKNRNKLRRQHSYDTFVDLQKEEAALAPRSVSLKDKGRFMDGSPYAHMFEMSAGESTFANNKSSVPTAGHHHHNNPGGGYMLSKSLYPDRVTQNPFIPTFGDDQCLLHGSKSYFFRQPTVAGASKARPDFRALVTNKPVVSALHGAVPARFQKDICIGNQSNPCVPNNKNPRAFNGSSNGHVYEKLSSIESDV
assay.remarks: Displacement of [3H]ifenprodil from human NR1-1a/NR2B receptor expressed in Mouse L(tk-) cell membranes incubated for 120 mins by scintillation counting method
pKi: −log10 of the molar value.
experimental.readout: pKi

// solved cases for pKi follow
Prompt: For the compound COc1ccc2c(c1)C(CO)CN(CCCCc1ccccc1)CC2 (centres undefined) , give its reported pKi.
Completion: 6.22

Prompt: Note pKi for the compound shown: COc1ccc2c(c1)CCN(CCCCc1ccccc1)CC2O (centres undefined)
Completion: 6.15

A = C=CC1CN(CCCCc2ccccc2)CCc2ccc(O)cc21 (centres undefined)
B = C=CC1CN(CCCCc2ccccc2)CCc2ccc(OC)cc21 (centres undefined)
Prompt: Between A and B , whose recorded pKi is greater? // caller expects the label of the chosen entry
Completion: A
(A: 6.80, B: 6.33)
